System: EBC-1 cells
ASSAY_TEXT: EBC-1 cell proliferation, CellTiter-Glo Luminescent Cell Viability Assay
Assay type: cell-based
EXPERIMENTAL_SETUP: Homo sapiens, 72 h incubation, read-out: IC50 (nM) against EBC-1 cells
Give measured IC50 for each item. Keep answers brief.
Numbers only, in nM.

> print(dat)
                                   compound  observation.type  endpoint.unit  observed.value
1  COc1cc2nccc(Oc3ccc(NC(=O)c4cn(C)c(C#N)c(-c5ccc(F)cc5)c4=O)cc3F)c2cc1OC [Example 21]              IC50             nM             109

Could you tell me IC50 for each of these compounds? They are listed below.
1. CCn1cc(-c2cnc(N)c(-c3ccc(NC(=O)c4cn(C5CC5)c(C#N)c(-c5ccc(F)cc5)c4=O)cc3F)c2)cn1 [Example 10]
2. COc1cc2nccc(Oc3ccc(NC(=O)c4cn(C5CCC5)c(C#N)c(-c5ccc(F)cc5)c4=O)cc3F)c2cc1OC [Example 23]
3. COc1cc2nccc(Oc3ccc(NC(=O)c4cc(C)c(C#N)n(-c5ccc(F)cc5)c4=O)cc3F)c2cc1OC [Example 29A]
4. CC(C)n1cc(C(=O)Nc2ccc(-c3cc(-c4cnn(C5CCNCC5)c4)cnc3N)c(F)c2)c(=O)c(-c2ccc(F)cc2)c1C#N [Example 2]

1: 208; 2: 74; 3: 82.7; 4: 24

---

Test system: EBC-1 cells
ASSAY_TEXT: EBC-1 cell proliferation, CellTiter-Glo Luminescent Cell Viability Assay
Type: cell-based
EXPERIMENTAL_SETUP: Homo sapiens, 72 h incubation, read-out: IC50 (nM) against EBC-1 cells
Give measured IC50 for each item. Keep answers brief.
Answers are plain numbers, in nM.

> print(dat)
                         chemical.structure  observation.type  observed.value
1  CC(C)n1cc(C(=O)Nc2ccc(-c3cc(-c4cnn(C5CCN(C)CC5)c4)cnc3N)c(F)c2)c(=O)c(-c2ccc(F)cc2)c1C#N              IC50              27

Could you tell me IC50 for each of these compounds? They are listed below.
1. COc1cc2nccc(Oc3ccc(NC(=O)c4cc(C)c(CN)n(-c5ccc(F)cc5)c4=O)cc3F)c2cc1OC
2. CC(C)n1cc(C(=O)Nc2cc(F)c(-c3cc(-c4cnn(C)c4)cnc3N)cc2F)c(=O)c(-c2ccc(F)cc2)c1C#N
3. N#Cc1c(-c2ccc(F)cc2)c(=O)c(C(=O)Nc2ccc(-c3cc(-c4cnn(C5CCNCC5)c4)cnc3N)c(F)c2)cn1C1CC1
4. COc1cc2nccc(Oc3ccc(NC(=O)c4cn(C(C)C)c(C#N)c(-c5ccc(F)cc5)c4=O)cc3F)c2cc1OC
5. N#Cc1c(C2CC2)cc(C(=O)Nc2ccc(-c3cc(-c4cnn(C5CCNCC5)c4)cnc3N)c(F)c2)c(=O)n1-c1ccc(F)cc1

1. 132
2. 13
3. 91
4. 45
5. 98

Name the recorded IC50 for CCn1cc(-c2cnc(N)c(-c3ccc(NC(=O)c4cn(C(C)C)c(C#N)c(-c5ccc(F)cc5)c4=O)cc3F)c2)cn1 . 22

---

SYSTEM_NAME: kinase c-MET (Homo sapiens, UniProt P08581)
Construct: purchased Carna 08-151
Sequence (P08581 956-1390 limits assumed): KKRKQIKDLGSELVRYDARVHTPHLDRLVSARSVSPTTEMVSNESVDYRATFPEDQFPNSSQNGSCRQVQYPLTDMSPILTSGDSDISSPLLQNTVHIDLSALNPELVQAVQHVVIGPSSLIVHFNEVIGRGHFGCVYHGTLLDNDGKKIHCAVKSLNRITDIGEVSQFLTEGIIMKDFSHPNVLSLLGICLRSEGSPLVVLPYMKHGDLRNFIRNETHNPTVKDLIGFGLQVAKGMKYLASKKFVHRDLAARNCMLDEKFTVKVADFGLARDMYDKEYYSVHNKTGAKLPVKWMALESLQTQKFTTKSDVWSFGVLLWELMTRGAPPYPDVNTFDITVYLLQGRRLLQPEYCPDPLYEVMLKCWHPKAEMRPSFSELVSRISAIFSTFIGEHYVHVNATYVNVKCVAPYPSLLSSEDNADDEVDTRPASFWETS
ASSAY_TEXT: Mobility shift assay, inhibitory activity against kinase c-MET
Type: biochemical
EXPERIMENTAL_SETUP: ATP at Km (35 μM), average of two independent experiments
Please assign false (0) whenever IC50 is at or above 20 nM, and true (1) whenever it is below.

Example entries begin here.
> print(dat)
                                   compound      group
1  CC(C)n1cc(C(=O)Nc2ccc(-c3cc(-c4cnn(C)c4)cnc3N)c(F)c2)c(=O)c(-c2ccc(F)cc2)c1C#N [Example 4]   true (1)
2  CCn1cc(-c2cnc(N)c(-c3ccc(NC(=O)c4cn(C5CC5)c(C#N)c(-c5ccc(F)cc5)c4=O)cc3F)c2)cn1 [Example 10]  false (0)
3  N#Cc1c(C2CC2)cc(C(=O)Nc2ccc(-c3cc(-c4cnn(C5CCOCC5)c4)cnc3N)c(F)c2)c(=O)n1-c1ccc(F)cc1 [Example 16]  false (0)
4  N#Cc1c(C2CC2)cc(C(=O)Nc2ccc(-c3cc(-c4cnn(C5CCNCC5)c4)cnc3N)c(F)c2)c(=O)n1-c1ccc(F)cc1 [Example 12]  false (0)
5  CC(C)n1cc(C(=O)Nc2ccc(-c3cc(-c4cnn(C5CCNCC5)c4)cnc3N)c(F)c2)c(=O)n(-c2ccc(F)cc2)c1=O [Example 20]   true (1)
6  CCn1cc(-c2cnc(N)c(-c3ccc(NC(=O)c4cc(C)c(C#N)n(-c5ccc(F)cc5)c4=O)cc3F)c2)cn1 [Example 18]   true (1)

State whether 20 nM exceeds IC50 recorded for N#Cc1c(-c2ccc(F)cc2)c(=O)c(C(=O)Nc2ccc(-c3cc(-c4cnn(C5CCNCC5)c4)cnc3N)c(F)c2)cn1C1CCC1 [Example 8] . true (1)

---

System: EBC-1 cells
ASSAY_TEXT: EBC-1 cell proliferation, CellTiter-Glo Luminescent Cell Viability Assay
Format: cell-based
EXPERIMENTAL_SETUP: Homo sapiens, 72 h incubation, read-out: IC50 (nM) against EBC-1 cells
OBSERVATION_TYPE: IC50 (nM)
Give bare numbers, in nM.

> print(dat)
                                   molecule  system.name  observation.type  endpoint.unit  observed.value
1  COc1cc2nccc(Oc3ccc(NC(=O)c4cn(C5CC5)c(C#N)c(-c5ccc(F)cc5)c4=O)cc3F)c2cc1OC  EBC-1 cells              IC50             nM              84
2  COc1cc2nccc(Oc3ccc(NC(=O)C4(C(=O)Nc5ccc(F)cc5)CC4)cc3)c2cc1OC [Cabozantinib, cabozantinib, reference compound]  EBC-1 cells              IC50             nM              37
3  COc1cc2nccc(Oc3ccc(NC(=O)c4cn(C(C)C)c(C#N)c(-c5ccc(F)cc5)c4=O)cc3F)c2cc1C#N  EBC-1 cells              IC50             nM             115
4  CC(C)n1cc(C(=O)Nc2ccc(-c3cc(-c4cnn(C5CCNCC5)c4)cnc3N)c(F)c2)c(=O)n(-c2ccc(F)cc2)c1=O  EBC-1 cells              IC50             nM             106
5  CCn1cc(-c2cnc(N)c(-c3ccc(NC(=O)c4cc(C)c(C#N)n(-c5ccc(F)cc5)c4=O)cc3F)c2)cn1  EBC-1 cells              IC50             nM             298

Could you tell me IC50 for each of these molecules? They are listed below.
1. CC(C)n1cc(C(=O)Nc2ccc(-c3cc(-c4cnn(C)c4)cnc3N)c(F)c2)c(=O)c(-c2ccc(F)cc2)c1C#N
2. Cn1cc(-c2cnc(N)c(-c3ccc(NC(=O)c4cc(C5CC5)c(C#N)n(-c5ccc(F)cc5)c4=O)cc3F)c2)cn1

1. 30
2. 190

---

SYSTEM_NAME: kinase Axl (Homo sapiens, UniProt P30530)
Construct: purchased Carna 08-107
Sequence (P30530 473-894 limits assumed): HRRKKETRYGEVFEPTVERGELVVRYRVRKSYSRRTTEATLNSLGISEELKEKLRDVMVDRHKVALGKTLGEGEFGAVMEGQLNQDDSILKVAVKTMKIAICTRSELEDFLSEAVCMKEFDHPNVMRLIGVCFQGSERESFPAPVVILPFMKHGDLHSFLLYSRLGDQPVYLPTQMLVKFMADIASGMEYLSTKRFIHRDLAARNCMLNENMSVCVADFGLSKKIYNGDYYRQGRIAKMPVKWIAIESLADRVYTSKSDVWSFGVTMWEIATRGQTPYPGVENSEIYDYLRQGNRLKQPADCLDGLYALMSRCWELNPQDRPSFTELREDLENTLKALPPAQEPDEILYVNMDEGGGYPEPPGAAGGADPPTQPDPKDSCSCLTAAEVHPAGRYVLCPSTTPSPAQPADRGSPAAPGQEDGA
ASSAY_TEXT: Mobility shift assay, inhibitory activity against kinase Axl
Type: biochemical
EXPERIMENTAL_SETUP: ATP at Km (81 μM), average of two independent experiments
Please assign no (0) whenever IC50 is at or above 6 nM, and yes (1) whenever it is below.

Example entries begin here.
> print(dat)
                         chemical.structure    group
1  CC(C)n1cc(C(=O)Nc2ccc(-c3cc(-c4cnn(C5CCOCC5)c4)cnc3N)c(F)c2)c(=O)c(-c2ccc(F)cc2)c1C#N  yes (1)
2  N#Cc1c(C2CC2)cc(C(=O)Nc2ccc(-c3cc(-c4cnn(C5CCOCC5)c4)cnc3N)c(F)c2)c(=O)n1-c1ccc(F)cc1   no (0)
3  CC(C)n1cc(C(=O)Nc2ccc(-c3cc(-c4cnn(C5CCNCC5)c4)cnc3N)c(F)c2)c(=O)n(-c2ccc(F)cc2)c1=O  yes (1)
4  CCn1cc(-c2cnc(N)c(-c3ccc(NC(=O)c4cn(C(C)C)c(C#N)c(-c5ccc(F)cc5)c4=O)cc3F)c2)cn1  yes (1)
5  CC(C)n1cc(C(=O)Nc2ccc(-c3cc(-c4cnn(C5CCNCC5)c4)cnc3N)c(F)c2)c(=O)c(-c2ccc(F)cc2)c1C#N  yes (1)

State whether 6 nM exceeds IC50 recorded for Cn1cc(-c2cnc(N)c(-c3ccc(NC(=O)c4cc(C5CC5)c(C#N)n(-c5ccc(F)cc5)c4=O)cc3F)c2)cn1 . no (0)

Check COc1cc2nccc(Oc3ccc(NC(=O)c4cn(C)c(C#N)c(-c5ccc(F)cc5)c4=O)cc3F)c2cc1OC too. yes (1)
